Source: patent US6951881B2

tgt: human cloned 5-HT6 receptors (Homo sapiens, UniProt P50406)
Construct: expressed in transfected cells; host or cells: HeLa cells
Sequence (P50406 whole entry): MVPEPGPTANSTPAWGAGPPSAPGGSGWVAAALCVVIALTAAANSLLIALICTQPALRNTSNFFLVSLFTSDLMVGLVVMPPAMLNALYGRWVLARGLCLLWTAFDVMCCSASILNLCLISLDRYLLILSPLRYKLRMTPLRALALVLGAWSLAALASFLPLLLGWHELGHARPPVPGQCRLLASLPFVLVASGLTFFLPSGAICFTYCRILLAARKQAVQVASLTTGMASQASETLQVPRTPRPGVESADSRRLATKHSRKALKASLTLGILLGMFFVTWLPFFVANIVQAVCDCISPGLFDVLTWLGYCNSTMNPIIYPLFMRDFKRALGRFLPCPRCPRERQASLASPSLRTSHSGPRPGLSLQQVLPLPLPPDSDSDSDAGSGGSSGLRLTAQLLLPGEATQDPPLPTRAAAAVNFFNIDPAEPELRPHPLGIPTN
Format: binding
reported.conditions: test compound dose 1000 nM; displacement of [3H]-LSD
parameter: inhibition at 1 µM (%)

Some molecules with known inhibition at 1 µM results, for comparison:
In [3]: df
Out[3]:
                                smiles_repr  unit_of_measurement  recorded_value
0     N=C(N)N/N=C1\CCCc2[nH]c3ccc(Cl)cc3c21                    %            99.1
1  CN(N=Cc1c(-c2ccc(F)c(Cl)c2)[nH]c2ccccc12)C1=NCCN1                    %            93.8
2  N#CCCn1c(-c2ccc(Cl)cc2)c(C=NNC(=N)N)c2ccccc21                    %              92
3  CN=C(NCCO)NN=Cc1c(-c2ccc(Cl)cc2)[nH]c2ccccc12                    %            31.6
4  N=C(N)NN=C(c1c(-c2ccc(Cl)cc2)[nH]c2ccccc12)C1CCCCC1                    %            28.5
5  N=C(NN=Cc1c(-c2ccc(Cl)cc2)[nH]c2ccccc12)NC1CCCC1                    %            49.5
6  CC(C)C(=NNC(=N)N)c1c(-c2ccccc2)n(-c2ccccc2)c2ccccc12                    %            21.5
7  CC(=NNC(=N)N)c1c(-c2ccc(Cl)cc2)n(CCC#N)c2ccccc12                    %            87.2

P: CN(N=Cc1c(-c2ccccc2)n(-c2ccccc2)c2ccccc12)C1=NCCN1
Q: CC(=NNC(=N)N)c1c(-c2ccc(Cl)cc2)[nH]c2ccccc12
R: CN(N=C(CCc1ccccc1)c1c(-c2ccc(Cl)cc2)[nH]c2ccccc12)C1=NCCN1
Could you please sort these 3 entries by inhibition at 1 µM from high to low? Please express your ranking as an ordered list of the labels.
Q, R, P

###

tgt: human cloned 5-HT6 receptors (Homo sapiens, UniProt P50406)
Construct: expressed in transfected cells; host or cells: HeLa cells
Format: binding
reported.conditions: test compound dose 1000 nM; displacement of [3H]-LSD
parameter: inhibition at 1 µM (%)

Some compounds with known inhibition at 1 µM results, for comparison:
>>> df
                                smiles_repr  recorded_value
0  Cc1nc(Cn2c(-c3ccc(Cl)cc3)c(C=CNNC3=NCCN3)c3ccccc32)cs1            62.7
1  CC(=NNC(=N)N)c1c(-c2ccc(F)c(F)c2)[nH]c2ccccc12            73.2
2  COc1ccc(S(=O)(=O)Nc2ccc3[nH]cc(C(C)=NNC(=N)N)c3c2)cc1            97.4
3  CC(=NNC(=N)N)c1c(-c2ccc(F)c(Cl)c2)[nH]c2ccccc12            87.2
4  CCCCCNC(=N)NN=Cc1c(-c2ccc(Cl)cc2)[nH]c2ccccc12            70.4

P: CCn1c(-c2ccc(Cl)cc2)c(C=NNC(=N)N)c2ccccc21
Q: CN=C(NC)NN=Cc1c(-c2ccc(Cl)cc2)[nH]c2ccccc12
R: CC(C)=CC(=NN(C)C1=NCCN1)c1c(-c2ccccc2)[nH]c2ccccc12
Could you please sort these 3 entries by inhibition at 1 µM from high to low? Please express your ranking as an ordered list of the labels.
P, Q, R

a: N=C(N)NN=C(c1c(-c2ccc(F)c(Cl)c2)[nH]c2ccccc12)C1CCCCC1
b: COc1ccc(S(=O)(=O)Nc2ccc3c(c2)c(C(C)=NNC(=N)N)cn3C)cc1OC
c: Cc1ccc(Cn2c(-c3ccc(Cl)cc3)c(C=NNC(=N)N)c3ccccc32)cc1
Please list these in order of increasing inhibition at 1 µM. Thank you! Please express your ranking as an ordered list of the labels.
c, a, b

P: N=C(N)NN=C(c1c(-c2ccccc2)[nH]c2ccccc12)C1CCCCC1
Q: CC(C)C(=NNC(=N)N)c1c(-c2ccccc2)n(C)c2ccccc12
Between the two listed entries P and Q , which has its inhibition at 1 µM at the higher number? Return value: the label identifying the chosen record.
Q
